Reference source: ChEMBL document CHEMBL1201862

# Test system: Malme-3M
# assay-remarks: NCI tumour cell line growth inhibition, 48 h
Calls of active or inactive are those of the source. Cut-off read from the data, not from the text of the source: active = GI50 up to about 1.1 µM and inactive = higher.
readout-kind: GI50

Solved entries:
molecule	GI50
CC[C@@]1(CCC(=O)NCCc2c[nH]c3ccccc23)CCC(=O)N2CCc3c([nH]c4ccccc34)[C@H]21	5.35 µM (inactive)
CCOc1cccc(/C=N\c2ccccc2SSc2ccccc2/N=C\c2cccc(OCC)c2O)c1O	10.2 µM (inactive)
C/C(CC(O)(C(F)(F)F)C(F)(F)F)=N\NC(N)=S	> 10 µM (inactive)
C[C@@H]1CC[C@@H]2[C@@H](C1)O[C@@H]([C@@H](C)OCc1ccccc1)SC2(C)C	17.2 µM (inactive)
Cc1nn(C(=O)c2ccc(Cl)cc2)c2c1C(c1ccc(O)cc1)SC(=N)N2 (stereo not given)	> 10 µM (inactive)

input: Report GI50 for COC(=O)C(C(=O)C(=O)Nc1ccc(N)cc1[N+](=O)[O-])c1nc2ccc(Cl)cc2nc1O (stereo not given)
output: > 100 µM (inactive)

input: Report GI50 for S=C1CSc2c(ccc3ccccc23)N1
output: > 100 µM (inactive)

input: Report GI50 for CC(C)(C)C(=O)CC1(O)C=C(O)C(O)(CC(=O)C(C)(C)C)O1 (stereo not given)
output: 86.9 µM (inactive)

input: Report GI50 for CC(C)(C)NC1=NC(C(F)(F)F)(C(F)(F)F)NC(=O)N1
output: 34.4 µM (inactive)

input: Report GI50 for NC(=O)NCCSC1CCCCC1O (stereo not given)
output: > 100 µM (inactive)

====

# Tested on: HCT-116
# assay-remarks: NCI tumour cell line growth inhibition, 48 h
Calls of active or inactive are those of the source. No stated cut-off is given here; in the data, active = GI50 up to about 1.1 µM and inactive = higher.
Respond only with the outcome that fits, drawn from active, inactive

compound	class-assignment
O=C1CCc2ccc(O)c(c2)Oc2ccc(cc2)[C@@H]2O[C@@H]2CO1	inactive
Cc1cc(C)c2c(=N)c3ccccc3n(CCCCCCn3c4ccccc4c(=N)c4c(C)cc(C)nc43)c2n1	active
COC(=O)C12OCC34C(CC5C(C)=C(O)C(=O)CC5(C)C3C(O)C1O)OC(=O)C(OC(=O)C=C(C)C)C24 (configuration not stated)	inactive
CC(=O)OC(C)(C)/C=C/C(=O)[C@](C)(O)[C@H]1[C@H](O)C[C@@]2(C)[C@@H]3CC=C4[C@@H](C[C@H](O)[C@H](O)C4(C)C)[C@]3(C)C(=O)C[C@]12C	active

input: What classification did CSc1cc(Cl)c(C)cc1S(=O)(=O)NC(=O)NNc1cccc(C(F)(F)F)n1 end up with in this test?
output: inactive

input: What classification did CCOc1ccc(N/C(=C(/C(Cl)=C(/Cl)N(CC)CC)[N+](=O)[O-])n2nnc3ccccc32)cc1 end up with in this test?
output: inactive

input: What classification did COc1cc(N(Cc2ccc3oc(=O)c(-c4ccccc4)nc3c2)Cc2ccc3oc(=O)c(-c4ccccc4)nc3c2)cc(OC)c1OC end up with in this test?
output: inactive

====

# System: NCI-H460
# assay-remarks: NCI tumour cell line growth inhibition, 48 h
Calls of active or inactive are those of the source. Rule as the data show it: active = GI50 up to about 1.1 µM and inactive = higher.
Parameter: GI50. Scope: all listed entries.

molecule	system	GI50
CN(C)c1ccc(/C=C2\N=C(c3ccc([N+](=O)[O-])cc3)OC2=O)cc1	NCI-H460	71 µM (inactive)
CC[C@@]1(CCC(=O)NCCc2c[nH]c3ccccc23)CCC(=O)N2CCc3c([nH]c4ccccc34)[C@H]21	NCI-H460	6.89 µM (inactive)
N/C(=N\O)N/N=C/c1cc(Br)cc(Br)c1O	NCI-H460	3.32 µM (inactive)
CCCCCCCCCCCCCCCC(=O)OCC(C[As](=O)(O)O)OC(=O)CCCCCCCCCCCCCCC (stereo not given)	NCI-H460	> 100 µM (inactive)
C=C(Cl)/C(=C/Cl)CCC(Br)C(C)(C)Cl.C=C(Cl)/C(=C\Cl)CCC(Br)C(C)(C)Cl (stereo not given)	NCI-H460	> 10 µM (inactive)

input: Report GI50 for CC(=O)Nc1ccc2nc(-c3cccc(F)c3)cc(O)c2c1
output: 16.4 µM (inactive)

input: Report GI50 for CC(C)C1OC23CCCCC2C(C#N)(C#N)C1(C#N)C(=N)O3 (stereo not given)
output: 4.73 µM (inactive)
